Reference source: PubChem BioAssay

Assay: basal RPMI8226 mitochondrial membrane potential changes, profiling panel, cell-based, JC-1 fluorescence, 24 h, 100 nL compound (AID 1169); further: test concentration not given here
Conditions: RPMI8226 myeloma, JC-1 mitochondrial potential fluorescence, higher = more signal
assay-metric: z-score

Worked cases, z-score given:
molecule	z-score
CC(CO)N1C(=O)[C@@H]2[C@H]3C(=O)OCC=C[C@H]3OC23C=CCN(Cc2ccccc2)C(=O)[C@@H]13 (stereo partly drawn)	-0.0286
O=C1OCC=C[C@H]2OC34C=CCN(Cn5nnc6ccccc65)C(=O)[C@H]3N(CCCO)C(=O)[C@@H]4[C@@H]12 (stereo partly drawn)	-0.252
O=C1NC(=O)C2C1C=CC(C(O)c1ccco1)N2Nc1ccccn1 (stereo not drawn)	0.127
CCCC[C@@H]1C[C@H]1[C@@H](NC(=O)c1ccccc1)c1ccc(C(F)(F)F)cc1	0.677
CN1C(=O)C2C=CC(C(O)c3cccc4ccccc34)N(N3CCCCC3)C2C1=O (stereo not drawn)	0.776
CC(C)(C)OC(=O)CC[C@@]1(C(=O)NCc2ccccc2)N=C(c2ccc(OCCCO)cc2)O[C@@H]1c1ccccc1N=[N+]=[N-]	-1.01
COCCOC(=O)N1C(=O)[C@@]2(c3ccccc31)[C@H](C(=O)N1CCN(c3ncccn3)CC1)[C@H]1C(=O)O[C@H](c3ccccc3)[C@H](c3ccccc3)N1[C@@H]2c1ccc(O)cc1	0.263

Now consider a different molecule.
Please give the measured z-score for this molecule: OCC1CC(c2ccccc2)=NO1 (stereo not drawn)
0.527
